Each recorded value in this set is attributed to the supplement of paper PMC10567573.

B1: WSB1 (parent)
chain: FSHDGLHVASLADDKMVRFWRIDE

# Variants of: B1
# assay-overview: protein stability index of a GFP-peptide fusion (GPS, HEK-293T) (PSI 1-6); higher = more stable;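 further: lentivirally expressed fusions sorted by FACS into six bins by GFP to DsRed ratio, PSI derived from sequencing read proportions per bin multiplied by bin number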
# experimental-context: c terminus: a fixed tail appended
So basically: protein stability index at 2 or higher? That is condition met. Lower than 2? That is condition not met.

Examples with answers:
| variant-descriptor | assigned-category |
| --- | --- |
| L11G | condition not met |
| A12V | condition not met |
| D13K | condition not met |
| E24A | condition met |
| D23G | condition met |
| W20D | condition met |
| M16G | condition not met |
| D23Q | condition not met |

Request: Determine whether this variant has protein stability index no lower than 2: D23P
Result: condition met

Request: Evaluate F1E : protein stability index at minimum 2?
Result: condition met

Request: Does the variant M16W have recorded protein stability index that is 2 or more?
Result: condition not met
